Organism: Cavia porcellus
assayMethodText: Intrinsic activity at muscarinic M2 receptor in electrically stimulated guinea-pig left atrium relative to benthanechol
Assay type: tissue-based
settings: Cardiac atrium
endpoint: Intrinsic activity

inputSmiles | recordedValue
Cc1cc(OCC#CCN2CCCC2)no1.O=C(O)/C=C/C(=O)O | 0
C(#CCN1CCCCC1)COC1=NOCC1.O=C(O)C(=O)O | 0.6
Cc1cc(OCC#CC[N+]2(C)CCCC2)no1.[I-] | 1
C[N+]1(CC#CCOc2cc(-c3ccccc3)on2)CCCC1.[I-] | 0
Cc1cc(OCC#CCN(C)C)no1.O=C(O)/C=C/C(=O)O | 1

###

testTarget: Muscarinic acetylcholine receptor M3 (Cavia porcellus) (UniProt Q8VH26)
Sequence (Q8VH26 1-587): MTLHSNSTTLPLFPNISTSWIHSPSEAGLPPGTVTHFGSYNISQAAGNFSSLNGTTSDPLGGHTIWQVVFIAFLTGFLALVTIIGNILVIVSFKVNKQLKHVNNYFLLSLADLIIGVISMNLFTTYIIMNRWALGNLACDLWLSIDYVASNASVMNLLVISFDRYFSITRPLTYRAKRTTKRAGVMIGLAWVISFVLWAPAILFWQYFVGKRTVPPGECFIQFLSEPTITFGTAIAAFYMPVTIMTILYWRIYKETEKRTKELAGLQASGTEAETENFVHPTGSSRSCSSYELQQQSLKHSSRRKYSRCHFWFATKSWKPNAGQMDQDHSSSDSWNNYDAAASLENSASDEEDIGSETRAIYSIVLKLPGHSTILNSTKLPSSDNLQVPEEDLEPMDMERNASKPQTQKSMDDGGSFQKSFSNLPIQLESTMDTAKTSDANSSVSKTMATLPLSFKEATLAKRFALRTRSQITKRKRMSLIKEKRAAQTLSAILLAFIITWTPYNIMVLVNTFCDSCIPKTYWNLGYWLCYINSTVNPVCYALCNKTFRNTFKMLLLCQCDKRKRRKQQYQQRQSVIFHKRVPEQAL
assayMethodText: Intrinsic activity at muscarinic M3 receptor in guinea-pig ileum relative to benthanechol
Type: tissue-based
Quick reference for Intrinsic activity among some compounds

compound | Intrinsic activity
Cc1cc(OCC#CC[N+](C)(C)C)no1.[I-] | 1
C(#CCN1CCCC1)COc1cc(-c2ccccc2)on1 | 0
Cc1cc(OCC#CC[N+]2(C)CCCC2)no1.[I-] | 0.9
Cc1cc(OCC#CCN(C)C)no1.O=C(O)/C=C/C(=O)O | 1.1
C(#CCOc1ccon1)CO/N=C1\CN2CCC1CC2.O=C(O)/C=C/C(=O)O | 0.9
C[N+]1(CC#CCOC2=NOCC2)CCCCC1.[I-] | 1
C(#CCN1CCCCC1)COC1=NOCC1.O=C(O)C(=O)O | 1
Cc1cc(OCC#CCN2CCCC2)no1.O=C(O)/C=C/C(=O)O | 0.4
CC(C[N+](C)(C)C)OC(N)=O (configuration not stated) | 1
C[N+]12CCC(CC1)/C(=N/OCC#CCOc1ccon1)C2.[I-] | 0.7
O=C(O)C(=O)O.O=C1CCON1CC#CCN1CCCCC1 | 0
C[N+]1(CC#CCOc2cc(-c3ccccc3)on2)CCCC1.[I-] | 0

The measurements presented in this section are drawn from ChEMBL document CHEMBL1137537.
